Give TGI for every item shown.
# System: DMS 273 small cell lung
# PROCEDURE_TEXT: NCI tumour cell line growth inhibition, 48 h

{"columns": ["COMPOUND", "TGI"],
 "data": [
  ["Cc1cc(OCC(O)CO)ccc1-c1ccccc1 (centres undefined)", "> 100 µM"]
]}

Would you mind listing TGI for each of the following compounds?
1. CCOc1ccccc1NC(=O)CC1Sc2ccccc2NC1=O (centres undefined)
2. COc1ccc2nc3ccccc3c(NCCN(C)CCCl)c2c1
3. CCN=C1Nc2ccccc2-n2c(nn3nc4ccccc4c23)N1CC

Solution:
["> 100 µM", "2.35 µM", "> 100 µM"]

Values from PubChem BioAssay (NCI)
